- Read-out: Epidermal growth factor receptor (EGFR), EGFR (gene 1956)
- PROTOCOL SUMMARY: BSK_hDFCGF_EGFR: BioMAP Diversity Plus: hDFCGF Assay for Epidermal growth factor receptor (EGFR) Biomarker Activity (AID 2283057)
- SETTINGS: primary human foreskin fibroblasts; actives raise or lower the signal
The source made the active and inactive calls. The calls were made as follows: active = hit-call score of the fitted dose curve at least 0.9, where 1 is the maximum; inactive = score below 0.9.
Permitted responses: class 1 (active), class 0 (inactive)

A selection of reference data follows.
{"COMPOUND": "CC(C)(C)c1ccc(O)c(C(C)(C)C)c1", "CAT": "class 1"}
{"COMPOUND": "Nc1cccc2c(N)cccc12", "CAT": "class 0"}
{"COMPOUND": "CN1CCC[C@H]1c1cccnc1", "CAT": "class 0"}

stdin: What call does the record list for COC(=O)CCCCC(=O)OC ?
stdout: class 0

stdin: Another compound to check: CCOC(=O)CC(O)(CC(=O)OCC)C(=O)OCC
stdout: class 0

stdin: Another compound to check: CCCCCCCCCCCCc1ccccc1S(=O)(=O)O
stdout: class 0

stdin: Another compound to check: NCC(F)(F)C(F)(F)C(F)(F)C(F)(F)C(F)(F)C(F)(F)C(F)(F)F
stdout: class 0

stdin: Another compound to check: OCCC(F)(F)C(F)(F)C(F)(F)C(F)(F)C(F)(F)C(F)(F)C(F)(F)C(F)(F)F
stdout: class 0

stdin: Another compound to check: CCCCC(CC)COC(=O)CCCCC(=O)OCc1ccccc1 (stereo not given)
stdout: class 0

stdin: Another compound to check: CC(O)CO (stereo not given)
stdout: class 0

stdin: Another compound to check: NC(=O)N1C(=O)C(C(=O)c2cc(Cl)cs2)c2cc(F)c(Cl)cc21 (stereo not given)
stdout: class 0

stdin: Another compound to check: c1ccc2cc3c(ccc4ccccc43)cc2c1
stdout: class 0

---

- Read-out: Matrix Metallopeptidase 1 (MMP1), MMP1 (gene 4312)
- PROTOCOL SUMMARY: BSK_hDFCGF_MMP1: BioMAP Diversity Plus: hDFCGF Assay for Matrix Metallopeptidase 1 (MMP1) Biomarker Activity (AID 2283064)
- SETTINGS: primary human foreskin fibroblasts; actives raise or lower the signal
The source made the active and inactive calls. The calls were made as follows: active = hit-call score of the fitted dose curve at least 0.9, where 1 is the maximum; inactive = score below 0.9.
Permitted responses: active, inactive

{"COMPOUND": "CN1CCC[C@H]1c1cccnc1", "CAT": "inactive"}
{"COMPOUND": "CC(=O)CC(C)(C)O", "CAT": "inactive"}
{"COMPOUND": "CC(C)(C)c1cccc(C(C)(C)C)c1O", "CAT": "active"}

stdin: What call does the record list for C#C[C@]1(O)CC[C@H]2[C@@H]3CCC4=CC(=O)CC[C@@H]4[C@H]3CC[C@@]21C ?
stdout: inactive

stdin: Another compound to check: Cc1cc(C)c(O)c(C)c1
stdout: inactive

stdin: Another compound to check: N#C[C@@H]1CC(F)(F)CN1C(=O)CNC1CC2CCC(C1)N2c1ncccn1 (stereo partly drawn)
stdout: inactive

stdin: Another compound to check: CC#C[C@]1(O)CC[C@H]2[C@@H]3CCC4=CC(=O)CCC4=C3[C@@H](c3ccc(N(C)C)cc3)C[C@@]21C
stdout: active

stdin: Another compound to check: CCN(CC)CCNc1ccc(CNC=O)c2sc3ccc(OC)cc3c(=O)c12
stdout: active

stdin: Another compound to check: CCCOc1sc(C(=O)N2CCC(c3cc(CN)ccc3F)CC2)c(C)c1Br
stdout: active
